test: Plasma clearance in BCRP knockout mouse by LC-MS/MS analysis; format: ADME
METRIC_NAME: clearance
Please report the result as a number followed by the unit.

Dear colleague, I am looking for the recorded clearance of the following compound: O=C(O)CSc1nc2cc(-c3ccc(-c4ccccc4)cc3)c(Cl)cc2[nH]1
2.9 mL/min/kg

---

experiment: Cmax in C57BL/6 mouse at 2 mg/kg, iv or 10 mg/kg administered through oral gavage by LC-MS/MS analysis; type: ADME, organism-based; conditions: in vivo
METRIC_NAME: Cmax
Write the figure, then the unit, nothing else.

Could you tell me which Cmax is on file for Cc1ccc(Oc2nc3cc(-c4ccc(-c5ccccc5)cc4)c(Cl)cc3[nH]2)cc1C(=O)O ?
2000 nM
